Test system: rodent lifetime carcinogenesis bioassay, tumor incidence TD50
Experiment: carcinogenic potency in animals, long-term in vivo studies, CPDB compilation (AID 1745844)
Conditions: rat; strain Wistar; males; in feed; site: kidney; lesion: several types; types named in the paper; dosed 104 weeks; study length 104 weeks

{"Mol smiles": "CC(=O)[O-].CC(=O)[O-].[OH-].[OH-].[OH-].[OH-].[Pb+2].[Pb+2].[Pb+2]", "TD50": "443 mg/kg/day"}

###

Tested on: rodent lifetime carcinogenesis bioassay, tumor incidence TD50
Experiment: carcinogenic potency in animals, long-term in vivo studies, CPDB compilation (AID 1745844)
Conditions: rat; strain Fischer 344; females; by gavage; site: liver; lesion: hepatocellular adenoma + hepatocellular carcinoma; dosed 102 weeks; study length 104 weeks

{"Mol smiles": "C=C1C/C(=C/C)C(=O)O[C@@H]2CCN3CC=C(COC(=O)[C@@]1(O)CO)[C@H]23", "Unit info": "mg/kg/day", "TD50": 1.2}

###

Test system: rodent lifetime carcinogenesis bioassay, tumor incidence TD50
Experiment: carcinogenic potency in animals, long-term in vivo studies, CPDB compilation (AID 1745844)
Conditions: mouse; strain B6C3F1; females; in feed; site: lung; lesion: alveolar/bronchiolar adenoma + alveolar/bronchiolar carcinoma; dosed 108 weeks; study length 108 weeks
Measure name: TD50 (mg/kg/day)

{"Mol smiles": "CCN(CC)C(=S)SSC(=S)N(CC)CC", "Reported": 323}
{"Mol smiles": "CCN(CC)C(=S)S", "Reported": 4760}

###

Test system: rodent lifetime carcinogenesis bioassay, tumor incidence TD50
Experiment: carcinogenic potency in animals, long-term in vivo studies, CPDB compilation (AID 1745844)
Details: rat; strain Wistar; females; in feed; site: kidney; lesion: renal-cell adenoma; dosed 96 weeks; study length 101 weeks

{"Compound": "O=P(O)(OCC(Br)CBr)OCC(Br)CBr (stereo unspecified)", "TD50 [mg/kg/day]": 1250}

###

System: rodent lifetime carcinogenesis bioassay, tumor incidence TD50
Experiment: carcinogenic potency in animals, long-term in vivo studies, CPDB compilation (AID 1745844)
Settings: rat; strain Sprague-Dawley; females; inhaled; site: extrahepatic tissue; lesion: angioma; dosed 25 weeks; study length 135 weeks

{"Mol smiles": "C=CCl", "TD50 [mg/kg/day]": 2990}

###

Test system: rodent lifetime carcinogenesis bioassay, tumor incidence TD50
Assay: carcinogenic potency in animals, long-term in vivo studies, CPDB compilation (AID 1745844)
Settings: mouse; strain Swiss; both sexes; by gavage; site: lung; lesion: adenocarcinoma; dosed 95 weeks; study length 95 weeks
Recorded TD50 values for a group of compounds are listed next.

{"Mol smiles": "O=S(=O)(O)O", "System name": "rodent lifetime carcinogenesis bioassay, tumor incidence TD50", "TD50": "9.81 mg/kg/day"}
{"Mol smiles": "NNC(=O)c1ccncc1", "System name": "rodent lifetime carcinogenesis bioassay, tumor incidence TD50", "TD50": "28.8 mg/kg/day"}

###

System: rodent lifetime carcinogenesis bioassay, tumor incidence TD50
Test: carcinogenic potency in animals, long-term in vivo studies, CPDB compilation (AID 1745844)
Settings: rat; strain Charles River CD (Sprague-Dawley); males; in feed; site: thyroid gland; lesion: several types; types named in the paper; dosed 104 weeks; study length 104 weeks

{"Mol smiles": "O=C1c2ccccc2C(=O)N1SC(Cl)(Cl)Cl", "TD50, mg/kg/day": 2940}

###

Test system: rodent lifetime carcinogenesis bioassay, tumor incidence TD50
Test: carcinogenic potency in animals, long-term in vivo studies, CPDB compilation (AID 1745844)
Conditions: mouse; strain Swiss; males; in drinking water; site: lung; lesion: adenoma; dosed 112 weeks; study length 112 weeks

{"Mol smiles": "CNN", "TD50": "2.93 mg/kg/day"}

###

Test system: rodent lifetime carcinogenesis bioassay, tumor incidence TD50
Test: carcinogenic potency in animals, long-term in vivo studies, CPDB compilation (AID 1745844)
Conditions: rat; strain Fischer 344; females; in drinking water; site: thyroid gland; lesion: c-cell adenoma + follicular-cell adenoma; dosed 103 weeks; study length 105 weeks

{"Mol smiles": "Nc1ccc(Cc2ccc(N)cc2)cc1", "System name": "rodent lifetime carcinogenesis bioassay, tumor incidence TD50", "TD50": "22 mg/kg/day"}

###

Tested on: rodent lifetime carcinogenesis bioassay, tumor incidence TD50
Test: carcinogenic potency in animals, long-term in vivo studies, CPDB compilation (AID 1745844)
Settings: rat; strain Sprague-Dawley; males; by gavage; site: any site (literature study); lesion: several types; types named in the paper; dosed 52 weeks; study length 136 weeks
Measure name: TD50 (mg/kg/day)

{"Mol smiles": "C=C(Cl)Cl", "System name": "rodent lifetime carcinogenesis bioassay, tumor incidence TD50", "Reported": 5.32}

###

Test system: rodent lifetime carcinogenesis bioassay, tumor incidence TD50
Assay: carcinogenic potency in animals, long-term in vivo studies, CPDB compilation (AID 1745844)
Details: rat; strain Fischer 344; males; in drinking water; site: subcutaneous tissue; lesion: fibroma + neurofibroma; dosed 88 weeks; study length 92 weeks
Measure name: TD50 (mg/kg/day)

{"Mol smiles": "COc1cc(-c2ccc(N)c(OC)c2)ccc1N", "System name": "rodent lifetime carcinogenesis bioassay, tumor incidence TD50", "Measure name": "TD50", "Reported": 5.19}

###

Test system: rodent lifetime carcinogenesis bioassay, tumor incidence TD50
Experiment: carcinogenic potency in animals, long-term in vivo studies, CPDB compilation (AID 1745844)
Details: rat; strain Sprague-Dawley; males; inhaled; site: any site (literature study); lesion: several types; types named in the paper; dosed 25 weeks; study length 115 weeks

{"Mol smiles": "C=CCl", "TD50": "134 mg/kg/day"}

###

Test system: rodent lifetime carcinogenesis bioassay, tumor incidence TD50
Assay: carcinogenic potency in animals, long-term in vivo studies, CPDB compilation (AID 1745844)
Conditions: rat; strain Fischer 344; males; by gavage; site: spleen; lesion: fibrosarcoma + hemangiosarcoma + osteosarcoma; dosed 103 weeks; study length 105 weeks

{"Mol smiles": "Nc1ccc(Cl)cc1", "System name": "rodent lifetime carcinogenesis bioassay, tumor incidence TD50", "TD50": "7.62 mg/kg/day"}

###

Tested on: rodent lifetime carcinogenesis bioassay, tumor incidence TD50
Test: carcinogenic potency in animals, long-term in vivo studies, CPDB compilation (AID 1745844)
Conditions: mouse; strain B6AKF1; females; oral dosing; site: any site (literature study); lesion: several types; types named in the paper; dosed 76 weeks; study length 76 weeks
Active and inactive are the calls of the source. The rule behind the calls is not given here.
Recorded TD50 values for a group of molecules are listed next.
Measure name: TD50

{"Mol smiles": "c1ccc(Nc2ccc3ccccc3c2)cc1", "Measure name": "TD50", "Reported": "1080 mg/kg/day"}
{"Mol smiles": "S=C([S-])NCCNC(=S)[S-].[Zn+2]", "Measure name": "TD50", "Reported": "1150 mg/kg/day (inactive)"}
{"Mol smiles": "CCN(CC)C(=S)S[Te](SC(=S)N(CC)CC)(SC(=S)N(CC)CC)SC(=S)N(CC)CC", "Measure name": "TD50", "Reported": "26.7 mg/kg/day"}
{"Mol smiles": "O=NN(c1ccccc1)c1ccccc1", "Measure name": "TD50", "Reported": "3260 mg/kg/day"}
{"Mol smiles": "Cc1cc(OC(=O)N(C)C)n(C(C)C)n1", "Measure name": "TD50", "Reported": "0.023 mg/kg/day (inactive)"}
{"Mol smiles": "CC(C)OC(=O)COc1ccc(Cl)cc1Cl", "Measure name": "TD50", "Reported": "83.2 mg/kg/day (inactive)"}
{"Mol smiles": "c1ccc2cc(Nc3ccc(Nc4ccc5ccccc5c4)cc3)ccc2c1", "Measure name": "TD50", "Reported": "63.8 mg/kg/day (inactive)"}
{"Mol smiles": "CCCCN(CCCC)C(=S)[S-].CCCCN(CCCC)C(=S)[S-].[Zn+2]", "Measure name": "TD50", "Reported": "2330 mg/kg/day (inactive)"}
{"Mol smiles": "CCN(CC)C(=S)[S-].CCN(CC)C(=S)[S-].[Cd+2]", "Measure name": "TD50", "Reported": "47.5 mg/kg/day (inactive)"}
{"Mol smiles": "S=C(SSSSSSC(=S)N1CCCCC1)N1CCCCC1", "Measure name": "TD50", "Reported": "120 mg/kg/day (inactive)"}
{"Mol smiles": "OC[C@@H](O)[C@H]1O[C@@H]2O[C@H](C(Cl)(Cl)Cl)O[C@@H]2[C@H]1O", "Measure name": "TD50", "Reported": "17.3 mg/kg/day (inactive)"}
{"Mol smiles": "O=S(=O)(c1ccc(Cl)cc1)c1cc(Cl)c(Cl)cc1Cl", "Measure name": "TD50", "Reported": "233 mg/kg/day (inactive)"}

###

Tested on: rodent lifetime carcinogenesis bioassay, tumor incidence TD50
Assay: carcinogenic potency in animals, long-term in vivo studies, CPDB compilation (AID 1745844)
Settings: rat; strain Sprague-Dawley; females; in feed; site: any site (literature study); lesion: several types; types named in the paper; dosed 46 weeks; study length 64 weeks
Active and inactive are the calls of the source. The rule behind the calls is not given here.
Measure name: TD50

{"Mol smiles": "Cc1csc(NNC=O)n1", "System name": "rodent lifetime carcinogenesis bioassay, tumor incidence TD50", "Measure name": "TD50", "Reported": "14.4 mg/kg/day"}
{"Mol smiles": "NC(=S)NNC=O", "System name": "rodent lifetime carcinogenesis bioassay, tumor incidence TD50", "Measure name": "TD50", "Reported": "140 mg/kg/day (inactive)"}
